Test system: PRMT1 (protein arginine N-methyltransferase 1)
Assay: PRMT1 binders on small-molecule microarrays, primary screen, biochemical, small-molecule microarray, 635 nm fluorescence (AID 1088);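 also: binding of Prmt1 protein to compounds spotted on small-molecule microarray slides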
Settings: small-molecule microarray binding, higher = more signal
measurement-type: composite z-score

line-notation | measurement-type | test-value
COCC(=C=CC[C@H](O)c1ccc(OCCO)cc1)C[C@H](O)c1ccccn1 | composite z-score | 0.546
CC(C)CN1C(=O)[C@@]2(Cc3ccccc31)c1ccccc1C(=O)N(C1CCCCC1)[C@H]2c1ccc(CO)cc1 | composite z-score | 0.499
C=CCc1cccc([C@H]2N[C@H](C(=O)O)CC[C@@H]2C)c1 | composite z-score | 0.453
COCCOC(=O)N1C(=O)[C@@]2(c3cc(C#CCCO)ccc31)[C@H](c1ccc(O)cc1)N1[C@H](c3ccccc3)[C@H](c3ccccc3)OC(=O)[C@H]1[C@@H]2C(=O)Nc1nc2ccccc2s1 | composite z-score | 1.55
